Test: Cytotoxicity against CRFK cells assessed as decrease in cell viability by MTS assay
Assay type: cell-based, Felis catus
Settings: cat
Kindly supply the reported CC50 values for the records listed here.
Give bare numbers, in µM.

Record excerpt, results attached:
Cc1cn(CN(CCOC(=O)C(C)(C)C)S(=O)(=O)c2ccc([N+](=O)[O-])cc2)c(=O)[nH]c1=O ... 53
CC(C)(C)C(=O)OCCN(Cn1cc(F)c(=O)[nH]c1=O)S(=O)(=O)c1cccc([N+](=O)[O-])c1 ... 95
CC(C)(C)C(=O)OCCN(Cn1cc(F)c(=O)[nH]c1=O)S(=O)(=O)c1ccccc1[N+](=O)[O-] ... 14
CC(C)(C)C(=O)OCCN(Cn1ccc(=O)[nH]c1=O)S(=O)(=O)c1ccc([N+](=O)[O-])cc1 ... 49

Task item: Which CC50 value is on record for `CC(C)(C)C(=O)OCCN(Cn1cc(F)c(=O)[nH]c1=O)S(=O)(=O)c1ccc([N+](=O)[O-])cc1` ?
Reply: 44
